Entry source: ChEMBL document CHEMBL1201862

MEASURED_TARGET: UniProt:P05186
Sequence (P05186 whole entry): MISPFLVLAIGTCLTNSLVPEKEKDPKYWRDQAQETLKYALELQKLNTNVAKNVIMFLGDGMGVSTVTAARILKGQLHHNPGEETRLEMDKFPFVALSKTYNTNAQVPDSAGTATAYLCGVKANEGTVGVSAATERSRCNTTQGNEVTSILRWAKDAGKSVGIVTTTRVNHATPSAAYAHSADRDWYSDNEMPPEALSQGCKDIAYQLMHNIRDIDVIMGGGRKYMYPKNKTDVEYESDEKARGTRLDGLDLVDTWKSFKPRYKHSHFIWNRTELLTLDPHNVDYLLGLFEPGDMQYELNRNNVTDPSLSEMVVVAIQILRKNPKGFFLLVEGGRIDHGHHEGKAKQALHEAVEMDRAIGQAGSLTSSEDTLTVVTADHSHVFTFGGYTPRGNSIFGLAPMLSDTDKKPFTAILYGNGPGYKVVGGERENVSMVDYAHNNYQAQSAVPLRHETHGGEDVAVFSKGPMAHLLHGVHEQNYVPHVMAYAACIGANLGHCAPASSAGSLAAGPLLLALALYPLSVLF
EXPERIMENT_NOTES: human TNAP enzyme inhibitors, SAR follow-up, biochemical, luminescent, dose response (AID 1056)
Activity calls are given as the source filed them.
READOUT: IC50

Solved entries (count: 3):
> print(dat)
                               given.smiles               result
1       O=S(=O)(Nc1cccnc1)c1ccccc1OC(F)(F)F  > 100 µM (inactive)
2  O=C(CSc1nnc(-c2ccccc2Cl)[nH]1)c1ccc(O)c(O)c1     1.36 µM (active)
3   CC1(C)CC(=O)c2c(-c3cccc(Br)c3)n[nH]c2C1  > 100 µM (inactive)

// fetch UniProt:P05186 IC50 for O=C(c1cc(-c2cc(F)c(Cl)cc2Cl)n[nH]1)N1CCCCCC1 > 100 µM (inactive)

---

MEASURED_TARGET: Carboxy-terminal domain RNA polymerase II polypeptide A small phosphatase 1 (Homo sapiens, UniProt Q9GZU7)
Sequence (Q9GZU7 whole entry): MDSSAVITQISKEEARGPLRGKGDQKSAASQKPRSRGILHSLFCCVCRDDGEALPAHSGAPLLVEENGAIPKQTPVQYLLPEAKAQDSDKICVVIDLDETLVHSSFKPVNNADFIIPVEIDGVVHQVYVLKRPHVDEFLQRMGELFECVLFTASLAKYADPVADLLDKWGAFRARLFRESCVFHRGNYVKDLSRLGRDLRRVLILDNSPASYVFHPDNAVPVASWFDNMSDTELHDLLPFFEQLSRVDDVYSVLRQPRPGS
EXPERIMENT_NOTES: inhibitors of CTDSP1, concentration-response testing, biochemical assay, absorbance-based, actives from ultra-high-throughput screening (AID 540297)
Assay type: functional
Activity calls are given as the source filed them.
Give IC50 for every item shown.

> print(dat)
                                   compound  readout            result
1    C=CCNc1nc(C(=O)OCC(=O)c2cccc(Br)c2)cs1     IC50     4 µM (active)
2  CCc1ccc(NC(=O)C[S+]([O-])CC(=O)NCCCc2ccccc2)cc1 (centres undefined)     IC50  7.62 µM (active)
3  C[C@@H]1CC=C[C@@H]2[C@H]1C(=O)N(Cc1ccccc1)[C@H]2c1cccc(C#Cc2ccccc2)c1     IC50    20 µM (active)
4  Cc1cc(C(=O)Nc2ccccc2C(=O)O)ccc1NC(=O)COc1ccccc1Cl     IC50  6.31 µM (active)
5  O=C(CCN1C(=O)/C(=C/c2ccc(Cl)cc2)SC1=S)Nc1cccc(C(=O)O)c1     IC50  4.43 µM (active)
6  C[N+]1(C)CCc2cc3c(cc2[C@H]1[C@@H]1OC(=O)c2c1ccc1c2OCO1)OCO3     IC50  3.48 µM (active)

Quick one: give me IC50 for each item below, same order please.
1. O=C(/C=C/c1cccc([N+](=O)[O-])c1)Nc1ccc(NC(=O)c2cccs2)cc1
2. CC(C)c1ccc(OC(=O)c2cccc(S(=O)(=O)N3CCN(C)CC3)c2)cc1
3. CC(Cc1c[nH]c2ccccc12)C(=O)NCc1ccco1 (centres undefined)

["4.11 µM (active)", "11.6 µM (active)", "19.4 µM (active)"]

---

MEASURED_TARGET: Cytochrome P450 2C9 (Homo sapiens)
Sequence (P11712 whole entry): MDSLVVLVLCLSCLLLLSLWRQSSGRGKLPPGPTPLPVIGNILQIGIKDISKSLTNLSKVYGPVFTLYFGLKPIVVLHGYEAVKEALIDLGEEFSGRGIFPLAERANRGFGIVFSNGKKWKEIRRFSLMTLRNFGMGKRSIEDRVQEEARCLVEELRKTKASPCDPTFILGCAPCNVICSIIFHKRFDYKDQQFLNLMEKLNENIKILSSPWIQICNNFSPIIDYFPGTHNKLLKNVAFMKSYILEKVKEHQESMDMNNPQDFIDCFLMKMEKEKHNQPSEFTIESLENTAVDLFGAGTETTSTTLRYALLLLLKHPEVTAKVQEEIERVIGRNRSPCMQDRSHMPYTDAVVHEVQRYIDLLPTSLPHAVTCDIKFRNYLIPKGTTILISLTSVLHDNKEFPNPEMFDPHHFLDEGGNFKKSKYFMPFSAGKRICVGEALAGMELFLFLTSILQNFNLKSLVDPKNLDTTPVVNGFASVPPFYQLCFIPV
Give AC50 for every item shown.

Solved entries (count: 6):
> print(dat)
                                   molecule                     measured.target  readout                   result
1        CC(C)(C)NC(=O)C(=O)NNC(=O)c1ccccc1  Cytochrome P450 2C9 (Homo sapiens)     AC50   1.78 µM (inconclusive)
2  CSc1nc2n(n1)C(c1cccc(F)c1)C(C(=O)Nc1ccc(C)cc1C)=C(C)N2 (stereo not drawn)  Cytochrome P450 2C9 (Homo sapiens)     AC50   3.98 µM (inconclusive)
3  N#Cc1ccc(CN2CC[C@@]3(CCCN(C(=O)c4ccncc4)C3)C2)cc1  Cytochrome P450 2C9 (Homo sapiens)     AC50   31.6 µM (inconclusive)
4           Cc1nc(N=C(N)S)sc1C(=O)Nc1ccccc1  Cytochrome P450 2C9 (Homo sapiens)     AC50   39.8 µM (inconclusive)
5  CCCCOc1ccc(C(=O)N/C(=C\c2cccc([N+](=O)[O-])c2)C(=O)OCCC)cc1  Cytochrome P450 2C9 (Homo sapiens)     AC50  0.708 µM (inconclusive)
6  CCOc1cc(CNc2ccc(OC)cc2)cc(Br)c1OCC(=O)NC(C)(C)C  Cytochrome P450 2C9 (Homo sapiens)     AC50   7.08 µM (inconclusive)

Quick one: give me AC50 for each item below, same order please.
1. C[N+](C)(C)CCC(=O)c1cccc2ccccc12
2. CC(C)c1ccc(CNc2cc(N3CCCC3)ccc2[N+](=O)[O-])cc1

1: 12.6 µM (inconclusive); 2: 2.24 µM (inconclusive)

---

MEASURED_TARGET: NAD-dependent protein deacylase sirtuin-5, mitochondrial (Homo sapiens)
Sequence (Q9NXA8 whole entry): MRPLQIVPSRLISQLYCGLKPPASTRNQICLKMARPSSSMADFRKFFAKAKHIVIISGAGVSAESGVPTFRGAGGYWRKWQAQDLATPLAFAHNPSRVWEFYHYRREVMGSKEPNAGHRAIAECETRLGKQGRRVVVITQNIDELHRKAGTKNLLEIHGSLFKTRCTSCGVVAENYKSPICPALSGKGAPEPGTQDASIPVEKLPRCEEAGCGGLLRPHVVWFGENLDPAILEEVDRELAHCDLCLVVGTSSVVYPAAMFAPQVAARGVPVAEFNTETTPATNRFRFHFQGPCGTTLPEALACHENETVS
EXPERIMENT_NOTES: SIRT5 desuccinylase inhibitors, dose response, biochemical, fluorescence imaging, cherry-pick, set 5 (AID 720591);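 further: desuccinylation of succinyl peptide AMC substrate read as fluorescence after trypsin release; potency of inhibitors that lower fluorescence and may act on trypsin instead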
Calls of active or inactive are those of the source.
Outcome field: choose from True for active, False for inactive

Known results for molecules:
> print(dat)
                                   molecule  class.name
1             CCc1c(C)nc2c(Br)cccc2c1SCCC#N       False
2  CCOC(=O)c1c(C)[nH]c(C)c1C(=O)COC(=O)c1ccccc1O        True

So what was the verdict on COc1ccc(C(=O)C2CCCN(Cc3c[nH]nc3-c3ccccc3)C2)cc1OC (centres undefined) in this test? False

So what was the verdict on Cc1cc(C2C(=O)c3ccccc3C2=O)c(C)c(C)c1C in this test? False

---

Give AC50 for every item shown.
MEASURED_TARGET: Heat shock protein HSP 90-alpha (Homo sapiens, UniProt P07900)
Assay type: functional, organism-based
The source made the active and inactive calls.

> print(dat)
                                compound                           measured.target            result
1  O=C(/C=C/N1CCOCC1)c1ccc(-c2ccccc2)cc1  Heat shock protein HSP 90-alpha (Homo sapiens, UniProt P07900)  1680 nM (active)

Quick one: give me AC50 for each item below, same order please.
1. COC(=O)c1ccc(N2C(=O)CC(N3CCC(O)(c4ccc(Br)cc4)CC3)C2=O)cc1 (configuration not stated)
2. O=C(Oc1c(Cl)cc(Cl)c2cccnc12)c1cccc([N+](=O)[O-])c1
3. CC1OC(CC(=O)O)CC2=C1C(=O)c1c(O)cccc1C2=O (configuration not stated) [NANAOMYCIN]

1: 2850 nM (active); 2: 14300 nM (active); 3: 262 nM (active)

Quick one: give me AC50 for each item below, same order please.
1. Cc1nnc(C)n1/N=C/c1cc(Br)cc(Br)c1O
2. CCCCCCC(=O)N(O)C1CC(=O)N(c2ccc(Cl)cc2)C1=O (configuration not stated)
3. COc1ccc(-c2nnc(SCC(=O)Oc3ccc(C)cc3)o2)cc1

1. 1680 nM (active)
2. 1640 nM (active)
3. 2530 nM (active)

---

EXPERIMENT_NOTES: HepG2 cell cytotoxicity, dose response, cytotoxicity control, plate reader, dry powder samples (AID 1159569);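 further: inhibitor potency with signal falling toward the positive control level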
Format: functional, cell-based
Activity calls are given as the source filed them.
Outcome field: choose from active, inactive

Known results for compounds:
> print(dat)
                               given.smiles  class.name
1  CCCNC(=O)N1[C@H](C#N)[C@H](c2ccc(C#Cc3ccc(F)cc3)cc2)[C@@H]1CO      active
2  CCCNC(=O)N1[C@H](C#N)[C@H](c2ccc(-c3cccc(OC)c3)cc2)[C@@H]1CO      active
3  C[C@@H]1CN([C@H](C)CO)C(=O)c2ccccc2-c2ccccc2CO[C@H]1CN(C)C(=O)Nc1cccc(Cl)c1Cl    inactive

Next:
So what was the verdict on COc1ccc(NC(=O)N2CCCCN3[C@H](CO)[C@H](c4ccc(C#CCC(C)C)cc4)[C@@H]3C2)cc1 in this test? inactive

---

MEASURED_TARGET: Cytochrome P450 2D6 (Homo sapiens);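 further: CYP2D6 member of a cytochrome P450 panel assay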
Sequence (P10635 whole entry): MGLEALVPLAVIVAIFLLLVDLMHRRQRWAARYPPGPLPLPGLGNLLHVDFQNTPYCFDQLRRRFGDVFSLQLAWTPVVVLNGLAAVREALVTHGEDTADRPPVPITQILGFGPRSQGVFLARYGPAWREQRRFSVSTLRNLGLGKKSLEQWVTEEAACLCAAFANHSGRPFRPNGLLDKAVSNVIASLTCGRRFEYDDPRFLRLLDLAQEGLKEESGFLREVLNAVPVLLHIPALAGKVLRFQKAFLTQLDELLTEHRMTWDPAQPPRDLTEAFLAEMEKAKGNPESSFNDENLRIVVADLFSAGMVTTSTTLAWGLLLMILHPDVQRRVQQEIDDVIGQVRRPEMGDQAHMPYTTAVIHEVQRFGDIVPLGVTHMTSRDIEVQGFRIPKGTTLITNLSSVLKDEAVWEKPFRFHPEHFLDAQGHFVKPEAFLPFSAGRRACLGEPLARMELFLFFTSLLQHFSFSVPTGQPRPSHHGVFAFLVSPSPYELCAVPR
Give AC50 for every item shown.

Solved entries (count: 6):
> print(dat)
                                   compound                     measured.target  readout                  result
1  O=c1c(CCc2ccccc2)nc2cncnc2n1Cc1ccc(F)cc1  Cytochrome P450 2D6 (Homo sapiens)     AC50  25.1 µM (inconclusive)
2  O=C(Nc1ccccc1)N1CCCC2(CCN(S(=O)(=O)c3ccccc3)CC2)C1  Cytochrome P450 2D6 (Homo sapiens)     AC50  15.8 µM (inconclusive)
3  N#Cc1ccc(CN2CC[C@@]3(CCCN(C(=O)c4ccncc4)C3)C2)cc1  Cytochrome P450 2D6 (Homo sapiens)     AC50    20 µM (inconclusive)
4         COCC(=O)N1CCC2(CC1)CN(c1ccccn1)C2  Cytochrome P450 2D6 (Homo sapiens)     AC50    20 µM (inconclusive)
5  CCS(=O)(=O)N1CCC(C(=O)NCc2ccc(F)cc2Cl)CC1  Cytochrome P450 2D6 (Homo sapiens)     AC50  14.1 µM (inconclusive)
6  CN1CCN(c2ncc3nc(CCc4ccccc4)c(=O)n(Cc4cccs4)c3n2)CC1  Cytochrome P450 2D6 (Homo sapiens)     AC50    20 µM (inconclusive)

Quick one: give me AC50 for each item below, same order please.
1. Cc1ccc(N(Cc2ccc([N+](=O)[O-])cc2)C(=O)c2ccco2)cc1
2. CCCCCCCCCC[Si](C)(C)CCC(=O)N[C@@H](Cc1ccc(C)cc1)c1ccccc1
3. Cc1ccccc1-c1cc(N(C)C)ncn1
4. N#Cc1cccc(-c2ccc3ncnc(NCc4cccs4)c3c2)c1
5. CCc1cccc2c(-c3ccccc3)c3c(nc12)OCC3

["0.562 µM (inconclusive)", "39.8 µM (inconclusive)", "39.8 µM (inconclusive)", "12.6 µM (inconclusive)", "15.8 µM (inconclusive)"]
